Some molecules, each annotated with its measured MIC.
System: Escherichia coli K-12 ML 1630
Answer format: numeric, µg/mL implied, no suffix.

Example results:
{"molecule": "NCC[C@H](O)C(=O)N[C@@H]1C[C@H](N)[C@@H](O[C@H]2O[C@H](CN)[C@@H](O)C[C@H]2N)[C@H](O[C@@H]2O[C@H](CN)[C@H](O)[C@H]2O)[C@H]1O [compound 4]", "unit-symbol": "µg/mL", "observed-value": 0.78}
{"molecule": "NCC[C@H](O)C(=O)N[C@@H]1C[C@H](N)[C@@H](O[C@H]2O[C@H](CN)[C@@H](O)C[C@H]2N)[C@H](O[C@@H]2O[C@@H](CO)[C@H](O)[C@H]2O)[C@H]1O [Compound No. 3]", "unit-symbol": "µg/mL", "observed-value": 0.78}

Query for Escherichia coli K-12 ML 1630: what MIC does the record show for NCC[C@H](O)C(=O)N[C@@H]1C[C@H](N)[C@@H](O[C@H]2O[C@H](CN)[C@@H](O)C[C@H]2N)[C@H](O[C@@H]2O[C@H](CO)[C@H](O)[C@H]2O)[C@H]1O [compound 6] ?
0.78

For the record NC[C@H](O)C(=O)N[C@@H]1C[C@H](N)[C@@H](O[C@H]2O[C@H](CN)[C@@H](O)C[C@H]2N)[C@H](O[C@@H]2O[C@H](CO)[C@H](O)[C@H]2O)[C@H]1O [Compound No. 2] , what value of MIC is listed for Escherichia coli K-12 ML 1630?
1.56

Provide the documented MIC with Escherichia coli K-12 ML 1630 as the system for NCC(O)C(=O)N[C@@H]1C[C@H](N)[C@@H](O[C@H]2O[C@H](CN)[C@@H](O)C[C@H]2N)[C@H](O[C@@H]2O[C@H](CO)[C@H](O)[C@H]2O)[C@H]1O (stereo partly drawn) [Compound No. 1]
3.12

Give the reported MIC for NCC[C@H](O)C(=O)N[C@@H]1C[C@H](N)[C@@H](O[C@H]2O[C@H](CN)[C@@H](O)C[C@H]2N)[C@H](O[C@@H]2O[C@H](CO)[C@@H](O)[C@H]2O)[C@H]1O [Compound No. 5] (system: Escherichia coli K-12 ML 1630).
1.56

====

Tested on: Escherichia coli K-12 LA 290 R55
measure: MIC

Recorded MIC of `NCC[C@H](O)C(=O)N[C@@H]1C[C@H](N)[C@@H](O[C@H]2O[C@H](CN)[C@@H](O)C[C@H]2N)[C@H](O[C@@H]2O[C@@H](CO)[C@H](O)[C@H]2O)[C@H]1O` , please.
1.56 µg/mL

What does the data say about its MIC? Entry: `NCC[C@H](O)C(=O)N[C@@H]1C[C@H](N)[C@@H](O[C@H]2O[C@H](CN)[C@@H](O)C[C@H]2N)[C@H](O[C@@H]2O[C@H](CN)[C@H](O)[C@H]2O)[C@H]1O`
0.39 µg/mL

Quick one: MIC for `NCC[C@H](O)C(=O)N[C@@H]1C[C@H](N)[C@@H](O[C@H]2O[C@H](CN)[C@@H](O)C[C@H]2N)[C@H](O[C@@H]2O[C@H](CO)[C@@H](O)[C@H]2O)[C@H]1O` ?
0.78 µg/mL

Any idea what MIC was measured for `NCC[C@H](O)C(=O)N[C@@H]1C[C@H](N)[C@@H](O[C@H]2O[C@H](CN)[C@@H](O)C[C@H]2N)[C@H](O[C@@H]2O[C@H](CO)[C@H](O)[C@H]2O)[C@H]1O` ?
0.78 µg/mL

Reported MIC for `NC[C@H](O)C(=O)N[C@@H]1C[C@H](N)[C@@H](O[C@H]2O[C@H](CN)[C@@H](O)C[C@H]2N)[C@H](O[C@@H]2O[C@H](CO)[C@H](O)[C@H]2O)[C@H]1O` : what is it?
0.78 µg/mL

Can you look up the measured MIC of NCC(O)C(=O)N[C@@H]1C[C@H](N)[C@@H](O[C@H]2O[C@H](CN)[C@@H](O)C[C@H]2N)[C@H](O[C@@H]2O[C@H](CO)[C@H](O)[C@H]2O)[C@H]1O (stereo partly drawn) for me?
3.12 µg/mL
